All figures here come from the supplement of paper PMC10065799.

As shown below, each of these sequences has a reported SH2 binding enrichment value.
molecular target: Grb2 SH2 (UniProt P62993); assay: SH2 binding enrichment of the phosphorylated peptide, bacterial display (enrichment ratio); higher = better substrate or ligand; peptides without Tyr show the background
Sequence (P62993 whole entry, looked up): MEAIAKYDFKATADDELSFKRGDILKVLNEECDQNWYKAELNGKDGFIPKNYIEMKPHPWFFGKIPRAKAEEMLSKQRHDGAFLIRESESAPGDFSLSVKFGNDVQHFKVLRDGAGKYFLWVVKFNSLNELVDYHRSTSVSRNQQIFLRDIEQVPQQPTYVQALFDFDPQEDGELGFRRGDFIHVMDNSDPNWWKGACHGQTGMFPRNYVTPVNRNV

residue_codes: SSSPTYPDLPF [GLI3_Y168]
assay_target: Grb2 SH2 (UniProt P62993)
SH2 binding enrichment: 0.859
//
residue_codes: HDRNTYEKYLG [TF_Y666]
assay_target: Grb2 SH2 (UniProt P62993)
SH2 binding enrichment: 0.935
//
residue_codes: EQKKYYNAMKN [SCN5A_Y1495_K1500N]
assay_target: Grb2 SH2 (UniProt P62993)
SH2 binding enrichment: 0.664
//
residue_codes: YTDPYYDYEIE [ZC3H18_Y372_A368T]
assay_target: Grb2 SH2 (UniProt P62993)
SH2 binding enrichment: 0.822
//
residue_codes: CTLNVYRQLHN [LUZP1_Y1036_S1034N]
assay_target: Grb2 SH2 (UniProt P62993)
SH2 binding enrichment: 0.796
//
residue_codes: ATVRPYRPYII [LRP5_Y1528_A1525V]
assay_target: Grb2 SH2 (UniProt P62993)
SH2 binding enrichment: 0.765

* * *

tested on: c-Abl (mouse); test: phosphorylation enrichment, bacterial display (enrichment ratio); higher = better substrate or ligand; peptides without Tyr show the background;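 further: 11-residue human phosphosite peptides and single-mutation variants displayed on the E. coli surface, counted by deep sequencing, each peptide's frequency after selection divided by its frequency in the unselected input library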;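 further: frequency after pTyr selection over input frequency; kinase dosed for 20-30% of maximal phosphorylation in three min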
Use 0.6 as the dividing line for phosphorylation enrichment, with the line itself on the MET side and lower values as NOT MET.

residue_codes: KSLSQYLEMDK [CAGE1_Y438_V435L]
category: NOT MET
//
residue_codes: GKTQQYDCKWF [BCR_Y751_YF]
category: MET
//
residue_codes: NRLNDYIFSFD [RARS1_Y516]
category: MET
//
residue_codes: CLMILYRLKER [PTPRR_Y249]
category: NOT MET
//
residue_codes: TLKDVCDDGKF [RPS6KA3_Y483_Y483C_YF]
category: MET
//
residue_codes: VDSLRYIYPKL [EIF2B3_Y92_A87V]
category: NOT MET
//
residue_codes: LEPHIYAVADV [MYO9A_Y216]
category: MET
//
residue_codes: ITGNGYFFRVF [MYBPC3_Y1135_I1131T_YF]
category: MET
//
residue_codes: GAALAYGLDKS [HSPA9_Y230_A225G]
category: NOT MET
//
residue_codes: LGLTVYADCLA [ABCA4_Y2063]
category: MET
//
residue_codes: ADYYDYGRGLS [KHDRBS3_Y304_H306R]
category: MET
//
residue_codes: ASNFNYFYHRE [KCNA1_Y413_V408A]
category: NOT MET
//
residue_codes: CSEETYRLMLQ [RET_Y981_M980T]
category: MET
//
residue_codes: CTTIHYNHMCN [TP53_Y234_Y236H]
category: NOT MET
//
residue_codes: FLTSSYINIST [IL23R_Y178_YF]
category: NOT MET
//
residue_codes: PECEWYKNGVK [TTN_Y2112]
category: MET
//
residue_codes: FGISGYLVDSV [MAP2K3_Y214]
category: MET
//
residue_codes: LGIDRYHAIVY [NPSR1_Y147_S143G]
category: NOT MET
//
residue_codes: NVFGNYNQQPS [HNRNPA2B1_Y306_D302V]
category: MET
//
residue_codes: KLKRSYSSRDI [USP8_Y717_P720R]
category: NOT MET
//
residue_codes: VMSMNYRVGAL [BCHE_Y174_V170M]
category: MET
//
residue_codes: MEIHAYRKLSE [LMNA_Y376_L380S]
category: MET
